B1: HDV Ribozyme (parent)
chain: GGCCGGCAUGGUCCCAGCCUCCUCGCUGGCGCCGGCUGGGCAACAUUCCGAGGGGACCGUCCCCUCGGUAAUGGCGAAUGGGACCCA

- Variants of: B1
- Test name: self-cleavage, relative activity (ratio to wild type); higher = more cleavage; co-transcriptional
Below, each entry is listed with its recorded self-cleavage.
Measurement type: self-cleavage

INSERT INTO results (residue_string, measurement_type, obs_value) VALUES
  ('GGCCCGCAUGGUCCCAGCCUCCUCGCUGGCGCCGGCUGGGCAACAUUCCGUGGGGACCGUCCCCUCGGUAAUGGCGAAUGGGACCCA [G5C A51U]', 'self-cleavage', 0.298),
  ('GGCCGGCAUGGUCCCAGCCUCCUCGCUGGCGCCGGCUGGGCAACAUUCCGAAGGGACCGUCCCCUCGGUAUUGGCGAAUGGGACCCA [G52A A71U]', 'self-cleavage', 0.923),
  ('GGCCGGCAUGGUCCCAGCCUCCUCGCUGGCGCCGGCUGGGCGACAUUCCGAGGGGACCGUCCCCUCGGUAAUGGCGAAUGGGACCAA [A42G C86A]', 'self-cleavage', 0.697),
  ('GGCCGGCAUGCUCCCAGCCUCCUCGCUGGCGCCGGCUGGGCAACAUUCCGAGGGGACCGUCCCCUUGGUAAUGGCGAAUGGGACCCA [G11C C66U]', 'self-cleavage', 0.289),
  ('GGCCGGCAUGGUCCCAACCUCCUCGCUGGCGCCGGCUGGGCAACAUUCCGAGGGGACCGUCCCCUCGUUAAUGGCGAAUGGGACCCA [G17A G68U]', 'self-cleavage', 0.659),
  ('CGCCGGCAUGGUCCCAGCCUCCUCGCUGGCGCCGGCUGGGCAACAUUCCGAGGGGACCGUGCCCUCGGUAAUGGCGAAUGGGACCCA [G1C C61G]', 'self-cleavage', 0.0504),
  ('GGCCGGCAUGGUCCCAGCCUCCUCGCUGGUGCCGGCUGGGCAGCAUUCCGAGGGGACCGUCCCCUCGGUAAUGGCGAAUGGGACCCA [C30U A43G]', 'self-cleavage', 0.0755),
  ('GGCCGGCAUGGUCCCAGCCUCCUCGCUGGCGCCGGCUGGGCACCAUUCCGAGGGGACCGUCCCCUUGGUAAUGGCGAAUGGGACCCA [A43C C66U]', 'self-cleavage', 0.306),
  ('GGCCGGCAUGGUCCCAGCCUCCUCGCUGGCGCCGGCUGGGCAACAUUCCGAAGGGACCGUCCCCUUGGUAAUGGCGAAUGGGACCCA [G52A C66U]', 'self-cleavage', 0.982),
  ('GGCCGGCAUGGUCCCAGCCUCCUCGCUGGCGCCGGCUGGGCAACAUUCCGAGGGGACCGUCCCCUCGGUAAUGGCGAAUGGUAACCA [G82U C84A]', 'self-cleavage', 0.261),
  ('GGCCGGCAUGGUCCCAGCCUCCUCGCUGGCGCCGGCUGGGCAAGAUUCCGAGGGGACCUUCCCCUCGGUAAUGGCGAAUGGGACCCA [C44G G59U]', 'self-cleavage', 0.81),
  ('GGCCGGCAUGGUCACAGCCUCCUCGCUGGCGCCGGCUGGGCAACAUUCCGAGGGGACCGUCCCCUCGGUAAUGGCGAAUGCGACCCA [C14A G81C]', 'self-cleavage', 1.22),
  ('GGCCGGCAUGGUCCCAGCCUCCUCGAUGGCGCCGGCUGGGCAACAUUCCGAGGGGACCGUCCCCUCGGCAAUGGCGAAUGGGACCCA [C26A U69C]', 'self-cleavage', 0.988),
  ('GGCCGGCAUGGUCCCAGCCUCGUCGCUGGCGCCGGCUGGGCAACCUUCCGAGGGGACCGUCCCCUCGGUAAUGGCGAAUGGGACCCA [C22G A45C]', 'self-cleavage', 0.0489),
  ('GGCCGGCAUGGUCCCAGCCUUCUCGCUGGCGCCGGCUGGGCAACAUUCCGAGGGGACCGUCCCCUCGGUAAGGGCGAAUGGGACCCA [C21U U72G]', 'self-cleavage', 0.19),
  ('GGCCGGCAUGGUCCCAGCCUCCUGGCUGGCGCCGGCUGGGCAACAUUCCGAGGGGACUGUCCCCUCGGUAAUGGCGAAUGGGACCCA [C24G C58U]', 'self-cleavage', 0.117);
